TARGET_DESC: DNA topoisomerase 1 (Homo sapiens)
PROTOCOL_DETAILS: Inhibition of recombinant human topoisomerase 1 expressed in yeast TopI null strain RS190 at 100 uM using negatively supercoiled pUC18 plasmid DNA as substrate incubated for 3 min by agarose gel electrophoresis method
// N strictly below 5% in inhibition; Y otherwise

Given the entry Cc1ccc(S(=O)(=O)N2Cc3c(nc4ncc(Br)cc4c3-c3ccccc3)-c3ccccc32)cc1 , answer whether its inhibition meets or surpasses 5%.
Y

Dear colleague, could you confirm whether O=c1oc2ccc(F)cc2c2nc3ncccc3c(-c3ccccc3)c12 has inhibition at or above 5%?
N

Tell me whether inhibition is at least 5% here: c1ccc(-c2c3c(nc4ncccc24)-c2ccccc2OC3)cc1
N

Identify whether the reported inhibition of the following compound is 5% or greater: Cc1ccc2c(c1)[C@H]1Nc3ncccc3[C@@H](c3ccccc3)[C@@H]1CO2
N

Kindly determine if inhibition recorded for O=C1Oc2ccccc2[C@H]2Nc3ncc(Br)cc3[C@@H](c3ccccc3)[C@H]12 is above or exactly 5%.
N

Given the entry Cc1ccc(S(=O)(=O)N2C[C@H]3[C@H](c4ccccc4)c4cccnc4N[C@@H]3c3ccccc32)cc1 , answer whether its inhibition meets or surpasses 5%.
Y

I'd appreciate it if you could say whether O=C1Oc2ccc(F)cc2[C@H]2Nc3ncccc3[C@@H](c3ccccc3)[C@H]12 has inhibition at least equal to 5%.
N

Confirm if inhibition reported for the compound Fc1ccc2c(c1)[C@H]1Nc3ncccc3[C@@H](c3ccccc3)[C@@H]1CO2 is 5% or above.
N
